target: glucagon receptor (UniProt P47871 26-477, limits assumed); test: cell-based or functional assay
Sequence (P47871 26-477 limits assumed): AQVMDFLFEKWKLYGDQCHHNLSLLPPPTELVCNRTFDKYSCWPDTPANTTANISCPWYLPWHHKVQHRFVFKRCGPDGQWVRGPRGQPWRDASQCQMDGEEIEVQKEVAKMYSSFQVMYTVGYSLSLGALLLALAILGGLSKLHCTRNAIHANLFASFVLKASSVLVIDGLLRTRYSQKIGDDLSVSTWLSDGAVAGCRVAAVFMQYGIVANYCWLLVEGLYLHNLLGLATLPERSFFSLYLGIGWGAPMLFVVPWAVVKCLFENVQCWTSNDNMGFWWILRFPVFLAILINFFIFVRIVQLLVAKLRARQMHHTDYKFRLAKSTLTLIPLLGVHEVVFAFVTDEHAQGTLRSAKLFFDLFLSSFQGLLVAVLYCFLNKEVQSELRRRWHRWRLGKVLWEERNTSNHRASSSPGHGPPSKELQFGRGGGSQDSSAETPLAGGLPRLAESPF
*1 amine or outer side, *2 acyl side, *3 side chain or, on linkers, in order; H or OH if unused. Where no end group is shown, it is not given here. Side-chain parts run from the residue outwards. [ ]: non-standard residue; d: D form. The star is where a group is joined. Isobutyryl(2-imidazol-4-yl) = CC(C)(C(=O)*)c1c[nH]cn1; γGlu = O=C(O)[C@H](CCC(=O)[*:2])N[*:1]; Palmitoyl = CCCCCCCCCCCCCCCC(=O)*; Aib = CC(C)(N)C(=O)O

Binder	EC50 (cAMP reporter) / pM
H[dS]QGTFTSDKSKYLDERRA[Aib]EFVQWLLDT-NH2 (not fully specified (residue 10)) [Analog No. 36: dSer2, K10acyl, E16, Aib20, E21, L27, D28 (SEQ ID NO: 30)]	8
H[Aib]EGTFTSDKSKYLDERRA[Aib]EFVQWLLDT-NH2 (not fully specified (residue 10)) [Analog No. 64: Aib2, E3, K10acyl, E16, Aib20, E21, L27, D28 (SEQ ID NO: 40)]	42
H[dS]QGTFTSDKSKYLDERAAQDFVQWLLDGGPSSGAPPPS-NH2 (not fully specified (residue 10)) [Analog No. 29: dSer2, K10acyl, E16, A18, L27, D28, G29 + CEX (SEQ ID NO: 27)]	3
H[Aib]QGTFTSDKSKYLD[Aib]RAAQDFVQWLKDGGPSSGAPPPS-NH2 (not fully specified (residue 10)) [Analog No. 54: Aib2, K10acyl, Aib16, A18, K27, D28, G29 + CEX (SEQ ID NO: 36)]	8
[Isobutyryl(2-imidazol-4-yl)][dS]QGTFTSDKSKYLDERAAQDFVQWLLDT-NH2 (not fully specified (residue 10)) [Analog No. 44: DMIA1, dSer2, K10acyl, E16, A18, L27, D28 (SEQ ID NO: 32)]	4
H[Aib]QGTFTSDK(Palmitoyl)SKYLD[Aib]RAAQDFVQWLVKGGPSSGAPPPS-NH2 [Analog No. 53: Aib2, K10acyl, Aib16, A18, V27, K28, G29 + CEX (SEQ ID NO: 35)]	11
H[Aib]QGTFTSDKSKYLDERAAQDFVQWLLDGRG-NH2 (not fully specified (residue 10)) [Analog No. 34: Aib2, K10acyl, E16, A18, L27, D28, GRG29-31 (SEQ ID NO: 29)]	7
H[Aib]QGTFTSDKSKYLD[Aib]RAAQDFVQWLMDGGPSSGAPPPS-NH2 (not fully specified (residue 10)) [Analog No. 49: Aib2, K10acyl, Aib16, A10, D28, G29 + CEX (SEQ ID NO: 33)]	5
H[Aib]QGTFTSDK([γGlu-Palmitoyl])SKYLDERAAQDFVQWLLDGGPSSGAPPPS-NH2 [Analog No. 30: Aib2, K10acyl, E16, A18, L27, D28, G29 + CEX (SEQ ID NO: 28)]	2
H[Aib]EGTFTSDK(Palmitoyl)SKYLDERRA[Aib]DFVQWLLDGGPSSGAPPPS-NH2 [Analog No. 65: Aib2, E3, K10acyl, E16, Aib20, L27, D28, G29 + CEX (SEQ ID NO: 41)]	221
H[Aib]EGTFTSDK([γGlu-C16])SKYLDERRA[Aib]EFVQWLLDGGPSSGAPPPS-NH2 [Analog No. 62: Aib2, E3, K10acyl, E16, Aib20, E21, L27, D28, G29 + CEX (SEQ ID NO: 38)]	127
